tested on: VDR:RXRa (NR concentration 270 nM, RXRa partner concentration 90 nM); assay: PBM binding z-score (relative to random genomic background probes); higher = stronger binding; sequences stand for … in GC…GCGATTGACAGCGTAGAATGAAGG
For each record, write down the corresponding PBM binding z-score.
Enter the number alone.

Query for VDR:RXRa (NR concentration 270 nM, RXRa partner concentration 90 nM): what PBM binding z-score does the record show for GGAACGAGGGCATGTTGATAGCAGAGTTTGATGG ?
0.929

Query for VDR:RXRa (NR concentration 270 nM, RXRa partner concentration 90 nM): what PBM binding z-score does the record show for TCTTGTAGATCAATAGCGGTTAAGAAAGTGCGCT ?
0.46

Query for VDR:RXRa (NR concentration 270 nM, RXRa partner concentration 90 nM): what PBM binding z-score does the record show for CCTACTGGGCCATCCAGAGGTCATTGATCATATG ?
4.12

Query for VDR:RXRa (NR concentration 270 nM, RXRa partner concentration 90 nM): what PBM binding z-score does the record show for TCTTGTAGATCAACAGAAGGTTAAGAAAGATCGA ?
0.765

Query for VDR:RXRa (NR concentration 270 nM, RXRa partner concentration 90 nM): what PBM binding z-score does the record show for ATCTCTAGGTAAAAGTTCAGCGAATCCCGAGGAT ?
1.69

Query for VDR:RXRa (NR concentration 270 nM, RXRa partner concentration 90 nM): what PBM binding z-score does the record show for CGTCCAAGGTCAAGGTCAGTGGAAGAGACTCGAA ?
4.89

====

system: PPARg:RXRa DBDmut IVT, anti-RXR (DBD mutation: RXRa K156A/R161A, NR concentration 270 nM, RXRa partner concentration 90 nM); assay: PBM binding z-score (relative to random genomic background probes); higher = stronger binding; sequences stand for … in GC…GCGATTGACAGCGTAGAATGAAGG
Observed property: PBM binding z-score
Enter the number alone.

Suppose we examine the sequence TCTTGTAGATCAATAGAGGTCAAGAAAGTGCGCT ; what PBM binding z-score value has been reported?
1.9

Suppose we examine the sequence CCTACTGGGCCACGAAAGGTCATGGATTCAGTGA ; what PBM binding z-score value has been reported?
5.9

Suppose we examine the sequence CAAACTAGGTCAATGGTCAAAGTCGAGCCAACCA ; what PBM binding z-score value has been reported?
8.19

Suppose we examine the sequence TCCCGGAGGACACGAAAGGTCAGAGCTCGACATC ; what PBM binding z-score value has been reported?
1.58

Suppose we examine the sequence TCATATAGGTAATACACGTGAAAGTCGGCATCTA ; what PBM binding z-score value has been reported?
3.9

Suppose we examine the sequence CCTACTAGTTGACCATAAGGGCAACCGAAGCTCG ; what PBM binding z-score value has been reported?
0.2

Suppose we examine the sequence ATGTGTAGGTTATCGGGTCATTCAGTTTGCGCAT ; what PBM binding z-score value has been reported?
4.63

Suppose we examine the sequence TCTAGTTGGTCAAGGGTCACACACTCGAAATGCG ; what PBM binding z-score value has been reported?
2.52

Suppose we examine the sequence ATCTCTAGGTAAGACTCAGTTCAGTGAGGAACGC ; what PBM binding z-score value has been reported?
1.94

Suppose we examine the sequence CAAACTAGGTCAAGAGGTCAACGTCCGCTTCCCG ; what PBM binding z-score value has been reported?
8.45

Suppose we examine the sequence ACAGACAGATGAGTGAAGGTAACTCAGCTGGACG ; what PBM binding z-score value has been reported?
-0.101

Suppose we examine the sequence GATACAGGGTCAGCTAGAGGCCAGAGTCTGGAAA ; what PBM binding z-score value has been reported?
1.42

Suppose we examine the sequence ACTATTACTTGAGACGAGGGCAACCGATAGGTTG ; what PBM binding z-score value has been reported?
0.899

Suppose we examine the sequence GGATCGAGGGCAAAGTTGATAGCATCTGTCGACG ; what PBM binding z-score value has been reported?
3.8

Suppose we examine the sequence AGTCACAGTTCAGGACGAGGTAACGTAAAGCACG ; what PBM binding z-score value has been reported?
-0.095

Suppose we examine the sequence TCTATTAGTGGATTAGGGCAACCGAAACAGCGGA ; what PBM binding z-score value has been reported?
2.45

Suppose we examine the sequence CATACAGGGTCAACTAGGCCAGAGTAGGGACGGC ; what PBM binding z-score value has been reported?
2.92

Suppose we examine the sequence ACTATTAGTTGACTGAGGGCAACCGATACGACGC ; what PBM binding z-score value has been reported?
0.524

====

For each record, write down the corresponding PBM binding z-score.
tested on: THRa:RXRa (NR concentration 90 nM, RXRa partner concentration 90 nM); assay: PBM binding z-score (relative to random genomic background probes); higher = stronger binding; sequences stand for … in GC…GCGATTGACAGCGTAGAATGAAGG
Enter the number alone.

Suppose we examine the sequence TCATGTAGGTAATACAGGTGAAAGTCGGCATCTA ; what PBM binding z-score value has been reported?
0.531

Suppose we examine the sequence TCATATAGGTAAATCCTAGGTGAAAGTCCGATCT ; what PBM binding z-score value has been reported?
1.96

Suppose we examine the sequence CCTCGGAGGACAATAGGAGGTCAGAGCTGCCAGA ; what PBM binding z-score value has been reported?
2.43

====

test system: THRa homodimer (NR concentration 90 nM); assay: PBM binding z-score (relative to random genomic background probes); higher = stronger binding; sequences stand for … in GC…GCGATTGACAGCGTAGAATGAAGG
For each record, write down the corresponding PBM binding z-score.
Enter the number alone.

Suppose we examine the sequence CCAGACCGGTGAAAGGTAACTCAGTCTGGTACGC ; what PBM binding z-score value has been reported?
-0.178

Suppose we examine the sequence TCATATAGGTAACCAGGTGAAAGTCCGTAAGTTA ; what PBM binding z-score value has been reported?
1.05

Suppose we examine the sequence TCTGCTAGGTCAGTTGGTCAGCTGACGAGCTGCC ; what PBM binding z-score value has been reported?
-0.308

Suppose we examine the sequence GATACAGGGTCAGCTAGATGCCAGAGTATGGAAA ; what PBM binding z-score value has been reported?
0.0826

Suppose we examine the sequence GGAACGAGGGCATTCGAGGTGATAGCATGGCGAT ; what PBM binding z-score value has been reported?
0.517

====

tested on: VDR:RXRa (NR concentration 270 nM, RXRa partner concentration 90 nM); experiment: PBM binding z-score (relative to random genomic background probes); higher = stronger binding; sequences stand for … in GC…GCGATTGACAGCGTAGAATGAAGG
For each record, write down the corresponding PBM binding z-score.

Suppose we examine the sequence CGAACTAGGTCATTCACAGGACAGTGAATAGTAA ; what PBM binding z-score value has been reported?
2.53

Suppose we examine the sequence TCATAAAGGTAAAGGTGAAAGTCGAACGATATGA ; what PBM binding z-score value has been reported?
0.948

Suppose we examine the sequence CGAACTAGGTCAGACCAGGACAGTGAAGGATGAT ; what PBM binding z-score value has been reported?
1.03

Suppose we examine the sequence GCTATTGGTTGAAAGGGCAACCGAATGATTCTCG ; what PBM binding z-score value has been reported?
0.563

Suppose we examine the sequence ACAATGAGGTTACCAAAGATCAGGGAAACGCTTG ; what PBM binding z-score value has been reported?
1.68

Suppose we examine the sequence CCGACTGGGGCAAGGTAACCATAACGCACAGCCA ; what PBM binding z-score value has been reported?
-0.466

====

test system: RARa homodimer (NR concentration 270 nM); assay: PBM binding z-score (relative to random genomic background probes); higher = stronger binding; sequences stand for … in GC…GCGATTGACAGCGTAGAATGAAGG
The class of a record is decided solely by its measured PBM binding z-score; consult group 1: < -0.1; group 2: ≥ -0.1 and < 0.8; group 3: ≥ 0.8

Determine which band this sequence sits in: CCGTCTGGGGCAAGGTTACCATAACGCACAGCCA
group 2

Determine which band this sequence sits in: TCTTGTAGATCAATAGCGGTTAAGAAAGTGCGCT
group 2

Determine which band this sequence sits in: ATATGTAGGTTAGCAGGGGTCATTCAGACTAGGC
group 3

Determine which band this sequence sits in: GCTAGCAGGCCATTTCGGTCACTCAATGACGGGC
group 1

Determine which band this sequence sits in: TTACCAAGGTGCGCTGAGGTCGTTGATCCAACTC
group 1

Determine which band this sequence sits in: CCGACTGGGGCAAAGGTTACCATTCTCAGTACGA
group 1

Determine which band this sequence sits in: AATACAGTGTCATCGTAGGCCAGAGTACGCACAG
group 2

Determine which band this sequence sits in: ACTAGCAGGCCAAGGGTCGCTCAAGATTAGTCCG
group 1

Determine which band this sequence sits in: ACTCGGAGGACAAAGATCAGAGCTACGCCAGTGA
group 1

Determine which band this sequence sits in: ACTGGGAGGACAAAGGTCAGAGCTACGCCAGTGA
group 3

Determine which band this sequence sits in: TCTAGCAGGCCAGAGGGTCACTTAAGAGGTACGG
group 1

Determine which band this sequence sits in: CCTACTGGGCCAAATGTCATTGATTCCAATGCTC
group 1

Determine which band this sequence sits in: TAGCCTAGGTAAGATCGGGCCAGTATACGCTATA
group 1

Determine which band this sequence sits in: TCCGCTAGGTCAACGATGGTCAGCTAATCTGCTA
group 1

Determine which band this sequence sits in: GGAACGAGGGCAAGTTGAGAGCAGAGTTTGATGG
group 1

Determine which band this sequence sits in: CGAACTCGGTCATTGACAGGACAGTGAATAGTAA
group 1

Determine which band this sequence sits in: ATCTGTAGGTAAAAGTTCAGTGAATCCCGAGGAT
group 3

Determine which band this sequence sits in: AATACAGGGTCACTAGGCCAGTGTAGGTACGAAT
group 2

Determine which band this sequence sits in: CCAGACAGGTGAGAAGCTAACTCAGCCTCGATTA
group 2

Determine which band this sequence sits in: CCTACTGAGCCATCAGGTCATTGATATCAACGTT
group 3

Determine which band this sequence sits in: GCTAGTTGGTCAGTATAAGGTCACACACCGGTCG
group 3

Determine which band this sequence sits in: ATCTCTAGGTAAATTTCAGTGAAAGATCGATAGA
group 3

Determine which band this sequence sits in: AGAACGGGGGCAATGAGTTGATAGCACGGGTGGC
group 3

Determine which band this sequence sits in: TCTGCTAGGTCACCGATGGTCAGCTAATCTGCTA
group 1

Determine which band this sequence sits in: CCTTACGGGTCACTGACGGGTTATAGCATTTGGA
group 3

Determine which band this sequence sits in: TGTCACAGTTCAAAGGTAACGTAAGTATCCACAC
group 1

Determine which band this sequence sits in: GCATATAGGTAGTACAAGGTGAAAGTCCGATTGT
group 2

Determine which band this sequence sits in: TCTCGGAGGGCACGAAAGGTCAGAGCTCGACATC
group 2

Determine which band this sequence sits in: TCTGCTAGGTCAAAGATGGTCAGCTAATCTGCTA
group 1

Determine which band this sequence sits in: AGAATGAGGTTACCAAAGATCAGGGGAACGCTTG
group 2

Determine which band this sequence sits in: ATCGAAAGGACGACGAGGTGAGTATACACCGTTT
group 2

Determine which band this sequence sits in: CCTACTGGGCCACGAAAGGTTATTGATTCAGTGA
group 2

Determine which band this sequence sits in: ACTATTAGTTGAGACGAGGGCAACCGTTAGGTTG
group 1

Determine which band this sequence sits in: CAGCCTAGGTCAGGTCCAGTATAGGAGGAACGTT
group 2

Determine which band this sequence sits in: TCTATTAGTTGAGGGGCAACCGACGAGTCCGTTT
group 2

Determine which band this sequence sits in: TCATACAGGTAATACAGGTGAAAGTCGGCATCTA
group 3

Determine which band this sequence sits in: CGAACTAGGTCATCCTGGACAGTGAATACATTGA
group 2

Determine which band this sequence sits in: ATATCTAGGTAACCAAGTTCAGTGAATGCCGAAC
group 3

Determine which band this sequence sits in: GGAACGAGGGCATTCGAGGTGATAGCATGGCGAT
group 1

Determine which band this sequence sits in: TCTTTTAGATCAGCAGGTTAAGAAAGCTGGCCAA
group 2

Determine which band this sequence sits in: ATATCTAGGTTAAGGGTCATTCAGGTTGGTTCGC
group 3

Determine which band this sequence sits in: CGAACTAGGGCATGAGTTGATAGCAAATGCCGAT
group 1

Determine which band this sequence sits in: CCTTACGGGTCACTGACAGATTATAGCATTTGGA
group 3

Determine which band this sequence sits in: AGGATGAGGTTATACGTAGATCAGGGAAGAAAGT
group 3

Determine which band this sequence sits in: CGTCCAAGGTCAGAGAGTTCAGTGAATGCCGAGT
group 3

Determine which band this sequence sits in: CCTACTTGGCCATCAGGTCATTGATATCAACGTT
group 3
